system: T47D; experiment: Inhibition of ER-positive human T47D cell proliferation assessed as [3H]thymidine incorporation into DNA helix after 3 days by betaplate counting analysis; type: functional, cell-based
endpointLabel: pIC50
By convention, pIC50 is the negative base-10 log of a molar concentration.

Task: Hi! What's the reported pIC50 for Nc1c(C(=O)Nc2cccc(Cl)c2)sc2nc3c(cc12)C(=O)CCC3 on T47D?
Result: 6.24
